# assay.target: human mGlu2 receptor (Homo sapiens)
# Sequence (Q14416 19-872): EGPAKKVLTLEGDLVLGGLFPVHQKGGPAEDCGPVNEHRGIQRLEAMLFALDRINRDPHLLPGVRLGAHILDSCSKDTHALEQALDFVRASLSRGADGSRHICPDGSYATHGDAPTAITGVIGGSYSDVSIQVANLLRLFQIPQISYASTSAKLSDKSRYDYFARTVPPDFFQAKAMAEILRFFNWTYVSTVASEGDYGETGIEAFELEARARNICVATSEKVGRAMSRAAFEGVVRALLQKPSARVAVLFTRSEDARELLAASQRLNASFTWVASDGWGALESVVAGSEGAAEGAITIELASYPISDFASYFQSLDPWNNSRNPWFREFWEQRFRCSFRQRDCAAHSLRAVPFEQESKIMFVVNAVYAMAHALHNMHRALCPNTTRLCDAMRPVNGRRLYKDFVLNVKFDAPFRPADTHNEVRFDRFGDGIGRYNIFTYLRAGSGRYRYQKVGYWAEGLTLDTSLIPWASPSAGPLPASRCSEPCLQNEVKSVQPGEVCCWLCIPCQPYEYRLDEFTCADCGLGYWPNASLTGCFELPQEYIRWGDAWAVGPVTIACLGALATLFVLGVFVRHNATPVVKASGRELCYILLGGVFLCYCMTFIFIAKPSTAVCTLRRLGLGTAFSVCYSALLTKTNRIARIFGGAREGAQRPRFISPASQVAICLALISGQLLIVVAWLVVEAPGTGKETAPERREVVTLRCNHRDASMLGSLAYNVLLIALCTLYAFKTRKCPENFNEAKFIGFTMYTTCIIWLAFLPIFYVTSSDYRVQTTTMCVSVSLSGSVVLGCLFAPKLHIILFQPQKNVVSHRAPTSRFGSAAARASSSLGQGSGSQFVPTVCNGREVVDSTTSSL
# method.description: FLIPR intracellular Ca2+ assay, potentiation of glutamate response in HEK293 clone expressing mGlu2 receptor, rGLAST and Galpha16
# experimental.setup: 1 μM glutamate added ten minutes after test compound, HEK293 cells with human mGlu2, rGLAST, Galpha16, read-out: EC50 values of potentiation effect to glutamate
measured.quantity: EC50

Q. Would you kindly share the measured EC50 for CN(C)c1ccc(N(Cc2cccnc2)S(=O)(=O)CC(F)(F)F)cc1 ?
A. 1 to 10 µM

Q. Would you kindly share the measured EC50 for CCCC(=O)c1ccc(NCc2c[nH]nc2-c2cccc(Cl)c2)cc1 ?
A. < 1 µM

Q. Would you kindly share the measured EC50 for O=C1c2ccc(OCc3c[nH]nc3-c3ccc(C(F)(F)F)cc3)cc2CN1CCCC(F)(F)F ?
A. < 1 µM

Q. Would you kindly share the measured EC50 for FC(F)(F)c1ccc(-c2n[nH]cc2CNc2ccc(Cl)cn2)cc1 ?
A. 1 to 10 µM

Q. Would you kindly share the measured EC50 for CC(C)COc1ccc(NCc2c[nH]nc2C(C)(C)C)cc1 ?
A. 1 to 10 µM

Q. Would you kindly share the measured EC50 for CCCC(=O)c1ccc(NCc2cnn(C)c2-c2ccccc2)cc1 ?
A. < 1 µM

Q. Would you kindly share the measured EC50 for CCN1Cc2cc(OCc3c[nH]nc3-c3cccc(C(F)(F)F)c3)ccc2C1=O ?
A. < 1 µM

Q. Would you kindly share the measured EC50 for CCCN1Cc2cc(OCc3c[nH]nc3-c3ccc(C(F)(F)F)cc3)ccc2C1=O ?
A. < 1 µM

Q. Would you kindly share the measured EC50 for CCCC(=O)c1ccc(NCc2cn(-c3ccccc3)nc2-c2cccnc2)cc1 ?
A. 1 to 10 µM

Q. Would you kindly share the measured EC50 for CCCN1Cc2cc(OCc3c[nH]nc3-c3ccc(F)cc3)ccc2C1=O ?
A. < 1 µM

Q. Would you kindly share the measured EC50 for CCCC(=O)c1ccc(NCc2c(C)nn(C)c2C)cc1 ?
A. 1 to 10 µM

Q. Would you kindly share the measured EC50 for CC(=O)c1ccc(OCc2c[nH]nc2-c2ccc(C(F)(F)F)cc2)cc1F ?
A. 1 to 10 µM

Q. Would you kindly share the measured EC50 for O=C1c2ccc(OCc3c[nH]nc3-c3ccc(C(F)(F)F)cc3)cc2CN1CC(F)F ?
A. < 1 µM

Q. Would you kindly share the measured EC50 for CCCC(=O)c1ccc(NCc2cnccc2-c2ccccc2)cc1 ?
A. < 1 µM

Q. Would you kindly share the measured EC50 for CN1Cc2cc(OCc3c[nH]nc3-c3ccc(C(F)(F)F)cc3)ccc2C1=O ?
A. < 1 µM

Q. Would you kindly share the measured EC50 for CCCC(=O)c1ccc(NCc2n[nH]nc2-c2ccccc2)cc1 ?
A. 1 to 10 µM

Q. Would you kindly share the measured EC50 for CCCC(=O)c1ccc(NCc2n[nH]cc2-c2ccc(OC)cc2)cc1 ?
A. < 1 µM

Q. Would you kindly share the measured EC50 for CCCC(=O)c1ccc(N(Cc2cccnc2)S(=O)(=O)CC(F)(F)F)cc1 ?
A. 1 to 10 µM

* * *

Answer each item with its documented EC50.
# assay.target: human mGlu2 receptor (Homo sapiens)
# method.description: FLIPR intracellular Ca2+ assay, potentiation of glutamate response in HEK293 clone expressing mGlu2 receptor, rGLAST and Galpha16
# experimental.setup: 1 μM glutamate added ten minutes after test compound, HEK293 cells with human mGlu2, rGLAST, Galpha16, read-out: EC50 values of potentiation effect to glutamate

Q. Would you kindly share the measured EC50 for CCN1Cc2cc(OCc3c[nH]nc3-c3cccc(F)c3)ccc2C1=O [Example 560] ?
A. < 1000 nM

Q. Would you kindly share the measured EC50 for CCCN1Cc2cc(OCc3c[nH]nc3-c3ccccc3)ccc2C1=O [Example 537] ?
A. < 1000 nM

Q. Would you kindly share the measured EC50 for CCCC(=O)c1ccc(N(Cc2ccc(N(C)C)nc2)S(=O)(=O)CC(F)(F)F)cc1 [Example 391] ?
A. 1000 to 10000 nM

Q. Would you kindly share the measured EC50 for CCCC(=O)c1ccc(NCc2c[nH]nc2-c2ccc(Cl)cc2)cc1OC(CC)CC [Example 437] ?
A. 1000 to 10000 nM

Q. Would you kindly share the measured EC50 for CC(C)CN1Cc2cc(OCc3c[nH]nc3-c3ccc(C(F)(F)F)cc3)ccc2C1=O [Example 587] ?
A. < 1000 nM

Q. Would you kindly share the measured EC50 for O=C1c2ccc(OCc3c[nH]nc3-c3cccc(C(F)(F)F)c3)cc2CN1CCBr [Example 565] ?
A. < 1000 nM

Q. Would you kindly share the measured EC50 for CCCC(=O)c1ccc(NCc2cn[nH]c2)cc1 [Example 68] ?
A. 1000 to 10000 nM

Q. Would you kindly share the measured EC50 for CCCC(=O)c1ccc(NCc2ccc(N3CCCCC3)nc2)cc1 [Example 312] ?
A. 1000 to 10000 nM

Q. Would you kindly share the measured EC50 for CCCC(=O)c1ccc(NCc2c(C)nn(C(C)(C)C)c2C)cc1 [Example 58] ?
A. 1000 to 10000 nM

Q. Would you kindly share the measured EC50 for CC(=O)c1ccc(NCc2c[nH]nc2-c2ccc(Cl)cc2)c(C)c1O [Example 440] ?
A. < 1000 nM

Q. Would you kindly share the measured EC50 for CCCc1c(NCc2c[nH]nc2-c2cccc(C(F)(F)F)c2)ccc(C(C)=O)c1O [Example 436] ?
A. 1000 to 10000 nM

Q. Would you kindly share the measured EC50 for CCCC(=O)c1ccc(NCc2c[nH]nc2C)cc1 [Example 475] ?
A. 1000 to 10000 nM

Q. Would you kindly share the measured EC50 for CCCC(=O)c1ccc(NCc2c[nH]nc2-c2ccccc2Cl)cc1 [Example 510] ?
A. < 1000 nM

Q. Would you kindly share the measured EC50 for CN(C)S(=O)(=O)c1ccc(NCc2c[nH]nc2-c2ccc(C(F)(F)F)cc2)cc1 [Example 169] ?
A. 1000 to 10000 nM

Q. Would you kindly share the measured EC50 for CCCC(=O)c1ccc(OCc2n[nH]cc2-c2ccc(CC)cc2)cc1 [Example 521] ?
A. < 1000 nM

Q. Would you kindly share the measured EC50 for CCCC(=O)c1ccc(NCc2cn(-c3ccccc3)nc2-c2ccc(F)cc2)cc1 [Example 221] ?
A. 1000 to 10000 nM

Q. Would you kindly share the measured EC50 for O=C1c2ccc(OCc3c[nH]nc3-c3ccc(Cl)c(Cl)c3)cc2CN1CCCC(F)(F)F [Example 554] ?
A. < 1000 nM

Q. Would you kindly share the measured EC50 for FC(F)(F)c1ccc(-c2n[nH]cc2CNc2cccc(Cl)n2)cc1 [Example 349] ?
A. 1000 to 10000 nM

Q. Would you kindly share the measured EC50 for CCCC(=O)c1ccc(NCc2c[nH]nc2-c2cccc(C(F)(F)F)c2)cc1OC [Example 434] ?
A. < 1000 nM

Q. Would you kindly share the measured EC50 for CCCCN1Cc2cc(OCc3c[nH]nc3-c3ccc(F)cc3)ccc2C1=O [Example 548] ?
A. < 1000 nM

Q. Would you kindly share the measured EC50 for O=C1c2ccc(OCc3c[nH]nc3-c3ccc(C(F)(F)F)cc3)cc2CN1c1ccccc1 [Example 589] ?
A. 1000 to 10000 nM

Q. Would you kindly share the measured EC50 for CCCC(=O)c1ccc(NCc2c[nH]nc2CCC)cc1 [Example 476] ?
A. 1000 to 10000 nM

Q. Would you kindly share the measured EC50 for CCCC(=O)c1ccc(NCc2n[nH]c3ccccc23)cc1 [Example 215] ?
A. 1000 to 10000 nM

Q. Would you kindly share the measured EC50 for CCCC(=O)c1ccc(NCc2cccnc2-c2ccsc2)cc1 [Example 321] ?
A. 1000 to 10000 nM

Q. Would you kindly share the measured EC50 for CCCC(=O)c1ccc(OCc2c[nH]nc2-c2ccc(F)cc2)cc1 [Example 495] ?
A. < 1000 nM

Q. Would you kindly share the measured EC50 for CCCN1Cc2cc(NCc3c[nH]nc3-c3cccc(F)c3)ccc2C1=O [Example 580] ?
A. < 1000 nM

Q. Would you kindly share the measured EC50 for CCCC(=O)c1ccc(NCc2cn(C)cn2)cc1 [Example 228] ?
A. 1000 to 10000 nM

Q. Would you kindly share the measured EC50 for O=C1c2ccc(OCc3c[nH]nc3-c3ccc(F)cc3)cc2CN1CC(F)(F)F [Example 570] ?
A. < 1000 nM

Q. Would you kindly share the measured EC50 for CCCC(=O)c1ccc(NCc2cccnc2)cc1 [Example 16] ?
A. 1000 to 10000 nM

Q. Would you kindly share the measured EC50 for CCCC(=O)c1ccc(NCc2cn(C)nc2-c2ccc(C(F)(F)F)cc2)cc1 [Example 374] ?
A. < 1000 nM

Q. Would you kindly share the measured EC50 for CN1CCC(Oc2ccc(NCc3c[nH]nc3C(C)(C)C)cc2)CC1 [Example 284] ?
A. 1000 to 10000 nM

Q. Would you kindly share the measured EC50 for CCCOc1ccc(NCc2c[nH]nc2C(C)(C)C)cc1 [Example 273] ?
A. 1000 to 10000 nM

Q. Would you kindly share the measured EC50 for COc1ccccc1Oc1ccc(NCc2c[nH]nc2-c2ccc(C(F)(F)F)cc2)cc1 [Example 83] ?
A. < 1000 nM

Q. Would you kindly share the measured EC50 for CCCC(=O)c1ccc(NCc2n[nH]cc2-c2ccc(Cl)cc2)cc1 [Example 518] ?
A. 1000 to 10000 nM

Q. Would you kindly share the measured EC50 for CCCC(=O)c1ccc(NCc2c(C)noc2C)cc1 [Example 227] ?
A. 1000 to 10000 nM

Q. Would you kindly share the measured EC50 for CCCC(=O)c1ccc(NCc2csc(-c3ccccc3)n2)cc1 [Example 46] ?
A. 1000 to 10000 nM

Q. Would you kindly share the measured EC50 for CCCN1CCc2cc(OCc3c[nH]nc3-c3ccc(C(F)(F)F)cc3)ccc2C1=O [Example 574] ?
A. < 1000 nM
